- experimental.system: T1, murine antithrombin (mouse, UniProt P32261 33-465)
- T1 construct: also called mouse antithrombin; murine AT
- T1 sequence (P32261 33-465 limits assumed): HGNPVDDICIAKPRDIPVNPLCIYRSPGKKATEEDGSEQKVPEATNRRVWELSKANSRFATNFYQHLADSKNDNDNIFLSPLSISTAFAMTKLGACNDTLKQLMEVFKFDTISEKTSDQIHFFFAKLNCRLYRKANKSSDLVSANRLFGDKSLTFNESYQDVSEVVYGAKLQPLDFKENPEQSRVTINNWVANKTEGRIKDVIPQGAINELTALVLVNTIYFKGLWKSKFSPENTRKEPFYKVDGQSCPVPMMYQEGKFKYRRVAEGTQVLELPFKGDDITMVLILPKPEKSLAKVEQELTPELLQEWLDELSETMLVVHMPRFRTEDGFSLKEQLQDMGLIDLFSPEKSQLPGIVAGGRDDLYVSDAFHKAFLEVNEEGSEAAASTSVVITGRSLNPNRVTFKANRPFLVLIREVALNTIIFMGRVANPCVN
- experiment.notes: ELISA, sdAb coated, plasma 1/4, bound antithrombin probed with polyclonal anti-antithrombin; grade by OD
value.kind: OD

Examples with their reported OD follow.
[
  {
    "binder": "KB-AT-002 (VHH, Monovalent anti-antithrombin single-domain antibody; also called sdAb KB-AT-002) VHH: QVQLVQSGGGLVQAGGSLRLSCAASGRTFNNNGMGWFRQAPGKEREFVAAISWSGGSTYYADSVKGRYIMSRDNAKNTVYLQMNSLKPEDTAVYYCAARTRYNSGLFSRNYDYWGQGTQVTVSS",
    "result": "≥ 0.5 od"
  },
  {
    "binder": "KB-AT-004 (VHH, Monovalent anti-antithrombin single-domain antibody; also called sdAb KB-AT-004) VHH: VQLQQSGGGLVQPGGSLRLSCAASAMTFSIRAWAWYRQAPGKQRELVASIGTGDITNYADSVKGRFTISRDNAKNTFYLQMNSLKPEDTAVYYCNGYRSTYAWGQGTQVTVSS",
    "result": "≥ 0.5 od"
  },
  {
    "binder": "KB-AT-006 (VHH, Monovalent anti-antithrombin single-domain antibody; also called sdAb KB-AT-006) VHH: QVQLQQSGGGLVQAGGSLRLSCAASGRTFSNNGMGWFRQAPGKEREFVAAISWSSGSTYYADSVKGRYTISRDNAKNTVYLQMNSLKPEDTAVYYCAARTRYNSGYFTRNYDYWGQGTQVTVSS",
    "result": "0.1 to 0.5 od"
  }
]

Shift focus to the following entry.
Provide OD value for the following binder: KB-AT-003 (VHH, Monovalent anti-antithrombin single-domain antibody; also called sdAb KB-AT-003) VHH: QVQLVQSGGGLVQPGGSLRLSCAASALTFSSRAWAWYRQAPGKQRELVASITGGGTTNYADSVKGRFTISRDNAKNTVYLQMNSLKPEDTAVHYCNGYRYTYAWGQGTQVTVSS
≥ 0.5 od
